- TEST: Immunosuppressive activity in BALB/c mouse T cells assessed as inhibition of ConA-induced T cell proliferation incubated 24 hrs post ConA-induction for 72 hrs by MTT assay
- Type: functional, cell-based
TEST READOUT: IC50 (µM)
Give the number; µM is assumed, so skip it.

Prompt: Sample `COc1cc(-c2nnc(SCc3ccccc3Cl)o2)ccc1OCc1ccccc1Cl` — what was its IC50?
Completion: 10.6

Prompt: # input molecule: `COc1cc(-c2nnc(SCc3ccc(Cl)cc3)o2)ccc1OCc1ccc(Cl)cc1` ; wanted: its IC50
Completion: 17.2

Prompt: Reported IC50 for `COc1cccc(CSc2nnc(-c3ccc(O)c(OC)c3)o2)c1` : what is it?
Completion: 7.41

Prompt: Look up IC50: `COc1cc(-c2nnc(SCc3ccccc3C)o2)ccc1O`
Completion: 8.42

Prompt: Requested read-out: IC50. Entry: `COc1cc(-c2nnc(SCc3ccccc3Br)o2)ccc1O`
Completion: 17.8

***
Prompt: # get_value(readout='IC50', item= `COc1cc(-c2nnc(SCc3ccccc3C)o2)ccc1OCc1ccccc1C` )
Completion: 18.9
